# Test system: MCF7
# RUN DESCRIPTION: Increase in intracellular GSH level in human MCF7 cells expressing antioxidant response element at 10 uM after 6 hrs by HPLC analysis relative to control
# Format: functional
ENDPOINT NAME: Activity (%)

1. O=C(/C=C/c1ccccc1)c1ccccc1    103
2. COc1cccc(OC)c1C(=O)/C=C/c1ccccc1Cl    105
3. COc1cc(OC)c(C(=O)/C=C/c2ccccc2)c(OC)c1    91
4. COc1cccc(OC)c1C(=O)/C=C/c1ccccc1    87
5. COc1ccc(C(=O)/C=C/c2cccc(OC)c2OC)c(O)c1    100
6. COc1ccc(C(=O)/C=C/c2ccccc2Cl)c(OC)c1    109

The reported numbers originate from ChEMBL document CHEMBL2021906.
